Catalogue of IC50 readings, one per entry.
- Tgt: GABA-A receptor; anion channel
- Test name: In vitro binding affinity to the Gamma-aminobutyric acid A receptor complex in absence of GABA in rat cerebellum tissue
- Type: tissue-based
Property: IC50 (µM)

[
  {
    "Molecule": "COP(=O)(c1ccccc1)N1CCCC(c2ccc(Cl)c(C(F)(F)F)c2)=N1 (centres undefined)",
    "Operator symbol": "=",
    "Recorded result": 8.3
  },
  {
    "Molecule": "CCCCc1ccc(C2=NN(S(=O)(=O)c3ccc(Cl)cc3)CCC2)cc1",
    "Operator symbol": ">",
    "Recorded result": 11
  },
  {
    "Molecule": "CCCCc1ccc(C2=NN(S(=O)(=O)c3ccc(I)cc3)CCC2)cc1",
    "Operator symbol": "=",
    "Recorded result": 10
  },
  {
    "Molecule": "CCOP(=O)(c1ccccc1)N1CCCC(c2ccc(Cl)c(Cl)c2)=N1 (centres undefined)",
    "Operator symbol": "=",
    "Recorded result": 1.39
  },
  {
    "Molecule": "CCCCc1ccc(C2=NN(S(=O)(=O)c3ccc(C)cc3)CCC2)cc1",
    "Operator symbol": ">",
    "Recorded result": 11
  },
  {
    "Molecule": "CCOP(=O)(c1ccccc1)N1CCCC(c2ccc(Cl)c(C(F)(F)F)c2)=N1 (centres undefined)",
    "Operator symbol": "=",
    "Recorded result": 5.4
  },
  {
    "Molecule": "COc1ccc(C2=NN(P(=O)(OC)c3ccccc3)CCC2)cc1 (centres undefined)",
    "Operator symbol": ">",
    "Recorded result": 11
  },
  {
    "Molecule": "C[C@]12CC[C@@H](O)C[C@@H]1CC[C@@H]1[C@@H]2CC[C@]2(C)[C@@H](C(=O)CO)CC[C@@H]12",
    "Operator symbol": "=",
    "Recorded result": 3.05
  },
  {
    "Molecule": "CC(=O)[C@H]1CC[C@H]2[C@@H]3CC[C@H]4C[C@H](O)CC[C@]4(C)[C@H]3CC[C@]12C",
    "Operator symbol": "=",
    "Recorded result": 2.61
  }
]
